Overview of recorded IC50 Ratio (vs PYY(3-36)) for various binders
ASSAYED_SYSTEM: T1, human Y2 receptor (human, UniProt P49146 1-381)
T1 construct: whole, on cells; used as membrane fraction of hY2R/CHO cells; also called human NPY2R; hY2R
T1 sequence (looked up): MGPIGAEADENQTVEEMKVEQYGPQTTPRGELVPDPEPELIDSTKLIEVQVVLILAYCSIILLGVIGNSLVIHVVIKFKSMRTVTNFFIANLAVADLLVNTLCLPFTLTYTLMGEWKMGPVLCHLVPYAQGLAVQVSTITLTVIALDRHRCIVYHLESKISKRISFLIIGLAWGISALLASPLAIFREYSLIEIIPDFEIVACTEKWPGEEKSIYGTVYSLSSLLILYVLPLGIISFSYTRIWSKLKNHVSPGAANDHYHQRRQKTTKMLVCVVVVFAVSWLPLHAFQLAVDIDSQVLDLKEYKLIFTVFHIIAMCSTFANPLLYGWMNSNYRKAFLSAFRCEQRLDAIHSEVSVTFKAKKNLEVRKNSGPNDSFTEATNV
PROTOCOL_NOTES: RBA: [125I]-PYY displacement, hY2R/CHO membranes
Non-standard residues stand in square brackets, D forms with d. No end group written: not given here. Phe(3-Me) = Cc1cccc(C[C@H](N)C(=O)O)c1; Cha = N[C@@H](CC1CCCCC1)C(=O)O; 4Amb = NCc1ccc(C(=O)O)cc1; Aib = CC(C)(N)C(=O)O
READOUT: IC50 Ratio (vs PYY(3-36))

{"BINDER": "Ac-[Cha]RAYINLITRQRY-NH2 (SMILES CC[C@H](C)[C@H](NC(=O)[C@H](Cc1ccc(O)cc1)NC(=O)[C@H](C)NC(=O)[C@H](CCCNC(=N)N)NC(=O)[C@H](CC1CCCCC1)NC(C)=O)C(=O)N[C@@H](CC(N)=O)C(=O)N[C@@H](CC(C)C)C(=O)N[C@H](C(=O)N[C@H](C(=O)N[C@@H](CCCNC(=N)N)C(=O)N[C@@H](CCC(N)=O)C(=O)N[C@@H](CCCNC(=N)N)C(=O)N[C@@H](Cc1ccc(O)cc1)C(N)=O)[C@@H](C)O)[C@@H](C)CC, also called compound No. 36) [Ac-[Cha24, Ala26, Ile28,31]-PYY(24-36)]", "READOUT": "IC50 Ratio (vs PYY(3-36))", "MEASURED": "17 ratio"}
{"BINDER": "[dR]LRAYINLITRQRY-NH2 (N-terminus assumed; SMILES CC[C@H](C)[C@H](NC(=O)[C@H](Cc1ccc(O)cc1)NC(=O)[C@H](C)NC(=O)[C@H](CCCNC(=N)N)NC(=O)[C@H](CC(C)C)NC(=O)[C@H](N)CCCNC(=N)N)C(=O)N[C@@H](CC(N)=O)C(=O)N[C@@H](CC(C)C)C(=O)N[C@H](C(=O)N[C@H](C(=O)N[C@@H](CCCNC(=N)N)C(=O)N[C@@H](CCC(N)=O)C(=O)N[C@@H](CCCNC(=N)N)C(=O)N[C@@H](Cc1ccc(O)cc1)C(N)=O)[C@@H](C)O)[C@@H](C)CC, also called compound No. 27) [[D-Arg23, Ala26, Ile28,31]-PYY(23-36)]", "READOUT": "IC50 Ratio (vs PYY(3-36))", "MEASURED": "4.5 ratio"}
{"BINDER": "Ac-S[dP]RH[Cha][Cha]NL[Aib]TRQR[Phe(3-Me)]-NH2 (SMILES CC(=O)N[C@@H](CO)C(=O)N1CCC[C@@H]1C(=O)N[C@@H](CCCNC(=N)N)C(=O)N[C@@H](Cc1c[nH]cn1)C(=O)N[C@@H](CC1CCCCC1)C(=O)N[C@@H](CC1CCCCC1)C(=O)N[C@@H](CC(N)=O)C(=O)N[C@@H](CC(C)C)C(=O)NC(C)(C)C(=O)N[C@H](C(=O)N[C@@H](CCCNC(=N)N)C(=O)N[C@@H](CCC(N)=O)C(=O)N[C@@H](CCCNC(=N)N)C(=O)N[C@@H](Cc1cccc(C)c1)C(N)=O)[C@@H](C)O, also called compound No. 197) [Ac-[D-Pro24, Cha27,28, Aib31, Phe(3Me)36]-PYY(23-36)]", "READOUT": "IC50 Ratio (vs PYY(3-36))", "MEASURED": "1.3 ratio"}
{"BINDER": "[4Amb]RARINLITRQRY-NH2 (N-terminus assumed; SMILES CC[C@H](C)[C@H](NC(=O)[C@H](CCCNC(=N)N)NC(=O)[C@H](C)NC(=O)[C@H](CCCNC(=N)N)NC(=O)c1ccc(CN)cc1)C(=O)N[C@@H](CC(N)=O)C(=O)N[C@@H](CC(C)C)C(=O)N[C@H](C(=O)N[C@H](C(=O)N[C@@H](CCCNC(=N)N)C(=O)N[C@@H](CCC(N)=O)C(=O)N[C@@H](CCCNC(=N)N)C(=O)N[C@@H](Cc1ccc(O)cc1)C(N)=O)[C@@H](C)O)[C@@H](C)CC, also called compound No. 29) [4-Aminomethylbenzoyl-[Ala26, Arg27, Ile28,31]-PYY(25-36)]", "READOUT": "IC50 Ratio (vs PYY(3-36))", "MEASURED": "6.8 ratio"}
